For Collagenase 3 (Homo sapiens, UniProt P45452), measured pIC50 is reported for the entries below.
Scale note: pIC50 = -log10(concentration in M).

Take a look at these entries with their results.
>  <SMILES INPUT>
Cc1cc(Br)cc(C(=O)NO)c1N(C)S(=O)(=O)c1ccc(Oc2ccc(C(C)(C)C)cc2)cc1

>  <READOUT LABEL>
pIC50

>  <TEST RESULT>
7.36

$$$$
>  <SMILES INPUT>
Cc1cc(C)c(N(C)S(=O)(=O)c2ccc(Sc3ccccc3)cc2)c(C(=O)NO)c1

>  <READOUT LABEL>
pIC50

>  <TEST RESULT>
8.52

$$$$
>  <SMILES INPUT>
COc1ccc(S(=O)(=O)N(Cc2cccnc2)c2c(C)cc(-c3ccc4ccccc4c3)cc2C(=O)NO)cc1

>  <READOUT LABEL>
pIC50

>  <TEST RESULT>
9.00

$$$$
>  <SMILES INPUT>
COc1ccc(S(=O)(=O)N(Cc2cccnc2)c2c(C(=O)NO)cc(C)cc2-c2ccccc2)cc1

>  <READOUT LABEL>
pIC50

>  <TEST RESULT>
8.52

$$$$

Measured pIC50 for this entry `COc1ccc(-c2ccc(S(=O)(=O)N(Cc3cccnc3)c3c(C)cccc3C(=O)NO)cc2)cc1` on Collagenase 3 (Homo sapiens, UniProt P45452): 7.74

---

MEASURED TARGET: Disintegrin and metalloproteinase domain-containing protein 17 (Homo sapiens, UniProt P78536)
Sequence (P78536 whole entry, the tested form may be a part): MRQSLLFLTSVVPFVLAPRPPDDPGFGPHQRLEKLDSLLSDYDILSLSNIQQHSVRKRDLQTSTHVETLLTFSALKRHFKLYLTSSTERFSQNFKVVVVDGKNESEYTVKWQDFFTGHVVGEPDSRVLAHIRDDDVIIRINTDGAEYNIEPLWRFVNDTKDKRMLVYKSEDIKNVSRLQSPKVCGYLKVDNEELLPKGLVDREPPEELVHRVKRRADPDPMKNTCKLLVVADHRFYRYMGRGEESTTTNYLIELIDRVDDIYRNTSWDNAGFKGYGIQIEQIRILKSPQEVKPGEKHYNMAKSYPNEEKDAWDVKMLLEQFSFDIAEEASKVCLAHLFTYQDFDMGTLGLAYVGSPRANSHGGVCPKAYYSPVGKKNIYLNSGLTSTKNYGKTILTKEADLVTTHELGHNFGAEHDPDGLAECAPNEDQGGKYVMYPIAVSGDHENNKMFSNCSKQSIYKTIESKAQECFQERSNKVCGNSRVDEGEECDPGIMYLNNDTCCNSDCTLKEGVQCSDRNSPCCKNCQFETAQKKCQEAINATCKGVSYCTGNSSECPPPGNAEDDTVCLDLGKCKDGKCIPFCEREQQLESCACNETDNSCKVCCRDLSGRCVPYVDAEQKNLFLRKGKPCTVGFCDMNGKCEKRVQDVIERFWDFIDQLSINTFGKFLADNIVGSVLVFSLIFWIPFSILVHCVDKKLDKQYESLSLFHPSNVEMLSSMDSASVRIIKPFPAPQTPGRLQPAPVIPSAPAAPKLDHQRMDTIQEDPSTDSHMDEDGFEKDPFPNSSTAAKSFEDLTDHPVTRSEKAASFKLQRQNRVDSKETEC
PROTOCOL SUMMARY: Inhibition of TNF-alpha converting enzyme (TACE) at 1 uM
READOUT LABEL: inhibition (%)
Kindly provide the numeric value in % only, without the unit symbol.

>  <SMILES INPUT>
CN(c1ccccc1C(=O)NO)S(=O)(=O)c1ccc(Oc2ccncc2)cc1

>  <TEST RESULT>
22

$$$$
>  <SMILES INPUT>
Cc1cc(Br)cc(C(=O)NO)c1N(C)S(=O)(=O)c1ccc(Oc2ccc(C(C)(C)C)cc2)cc1

>  <TEST RESULT>
19

$$$$

Form field inhibition, entry `CCN(CC)Cc1cc(C)c(N(Cc2ccccc2)S(=O)(=O)c2ccc(OC)cc2)c(C(=O)NO)c1` : 44

Value of measured inhibition for the entry `Cc1cccc(C(=O)NO)c1N(Cc1cccnc1)S(=O)(=O)c1ccc(-c2ccc3c(c2)OCO3)cc1` : 9

---

MEASURED TARGET: Matrix metalloproteinase-9 (Homo sapiens)
Sequence (P14780 whole entry): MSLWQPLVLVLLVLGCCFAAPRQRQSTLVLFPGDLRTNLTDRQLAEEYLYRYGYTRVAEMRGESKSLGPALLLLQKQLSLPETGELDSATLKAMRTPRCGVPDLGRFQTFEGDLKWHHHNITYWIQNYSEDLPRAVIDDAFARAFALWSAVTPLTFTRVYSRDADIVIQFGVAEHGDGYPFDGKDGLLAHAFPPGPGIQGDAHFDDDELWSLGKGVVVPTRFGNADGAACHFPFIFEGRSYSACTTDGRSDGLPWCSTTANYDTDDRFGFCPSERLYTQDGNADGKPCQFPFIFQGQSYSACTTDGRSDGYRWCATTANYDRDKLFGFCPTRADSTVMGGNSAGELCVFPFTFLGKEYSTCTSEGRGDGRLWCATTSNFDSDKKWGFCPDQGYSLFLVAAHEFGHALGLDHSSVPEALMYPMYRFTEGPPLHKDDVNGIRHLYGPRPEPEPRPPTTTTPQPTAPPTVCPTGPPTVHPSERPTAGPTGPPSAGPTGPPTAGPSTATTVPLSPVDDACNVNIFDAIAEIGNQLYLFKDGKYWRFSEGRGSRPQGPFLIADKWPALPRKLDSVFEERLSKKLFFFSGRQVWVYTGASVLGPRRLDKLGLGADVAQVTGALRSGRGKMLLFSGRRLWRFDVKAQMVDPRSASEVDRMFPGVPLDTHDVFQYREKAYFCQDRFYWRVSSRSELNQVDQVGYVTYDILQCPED
pIC50: −log10 of the molar value.
I would appreciate it if you labelled entries Yes when pIC50 is 8 or higher, otherwise No.

>  <SMILES INPUT>
Cc1cc(Br)cc(C(=O)NO)c1N(C)S(=O)(=O)c1ccc(Oc2ccc(C(C)(C)C)cc2)cc1

>  <ASSIGNED LABEL>
No

$$$$
>  <SMILES INPUT>
Cc1cc(Br)cc(C(=O)NO)c1N(C)S(=O)(=O)c1ccc(-c2ccc(OCc3ccccc3)cc2)cc1

>  <ASSIGNED LABEL>
No

$$$$

Please find the next compound below.
Task: Check the entry `COc1ccc(S(=O)(=O)N(Cc2cccnc2)c2c(C)cc(-c3ccc4ccccc4c3)cc2C(=O)NO)cc1` : does pIC50 equal or exceed 8?
Output: Yes

---

Entries below carry reported pIC50 on Disintegrin and metalloproteinase domain-containing protein 17 (Homo sapiens).
# pIC50: negative log10 of molar concentration; output just the value

Examples with their reported pIC50 follow.
>  <SMILES INPUT>
COc1ccc(S(=O)(=O)N(Cc2cccnc2)c2c(C)cc(Br)cc2C(=O)NO)cc1

>  <pIC50>
7.37

$$$$
>  <SMILES INPUT>
Cc1cc(C)c(N(C)S(=O)(=O)c2ccc(Sc3ccccc3)cc2)c(C(=O)NO)c1

>  <pIC50>
6.14

$$$$
>  <SMILES INPUT>
Cc1cc(Br)cc(C(=O)NO)c1N(Cc1ccccc1)S(=O)(=O)c1ccc(OCc2ccccc2)cc1

>  <pIC50>
6.55

$$$$
>  <SMILES INPUT>
Cc1cc(Br)cc(C(=O)NO)c1N(C)S(=O)(=O)c1ccc(-c2ccc(OCc3ccccc3)cc2)cc1

>  <pIC50>
7.24

$$$$

Consider the additional molecule presented here.
Hey, Disintegrin and metalloproteinase domain-containing protein 17 (Homo sapiens) data for `COc1ccc(S(=O)(=O)N(Cc2cccnc2)c2c(C(=O)NO)cc(C)cc2-c2ccccc2)cc1` : pIC50 came out at 6.88

---

Items are presented alongside their recorded pIC50.
Protein target, amino acids: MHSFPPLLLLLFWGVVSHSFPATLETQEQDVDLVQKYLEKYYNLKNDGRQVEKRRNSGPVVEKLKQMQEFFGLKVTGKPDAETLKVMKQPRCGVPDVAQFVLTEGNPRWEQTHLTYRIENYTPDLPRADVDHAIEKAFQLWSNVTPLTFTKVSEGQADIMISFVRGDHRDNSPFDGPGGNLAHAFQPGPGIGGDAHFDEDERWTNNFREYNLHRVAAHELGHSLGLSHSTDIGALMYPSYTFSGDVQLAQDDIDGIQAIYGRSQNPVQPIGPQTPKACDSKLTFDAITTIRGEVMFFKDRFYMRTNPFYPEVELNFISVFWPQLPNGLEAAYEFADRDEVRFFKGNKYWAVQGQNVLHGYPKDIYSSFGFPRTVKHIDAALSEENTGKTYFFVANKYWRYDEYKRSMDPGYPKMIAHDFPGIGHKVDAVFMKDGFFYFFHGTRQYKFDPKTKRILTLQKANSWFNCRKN
Kindly note that pIC50 refers to -log10 of the concentration in mol/L and answer with the value alone.

Would you please look over these solved cases?
>  <SMILES INPUT>
Cc1cc(C)c(N(C)S(=O)(=O)c2ccc(Sc3ccccc3)cc2)c(C(=O)NO)c1

>  <pIC50>
5.88

$$$$
>  <SMILES INPUT>
COc1ccc(S(=O)(=O)N(Cc2cccnc2)c2c(C)cc(-c3ccc4ccccc4c3)cc2C(=O)NO)cc1

>  <pIC50>
6.13

$$$$
>  <SMILES INPUT>
Cc1cc(Br)cc(C(=O)NO)c1N(C)S(=O)(=O)c1ccc(-c2ccc(OCc3ccsc3)cc2)cc1

>  <pIC50>
5.33

$$$$
>  <SMILES INPUT>
COc1ccc(-c2ccc(S(=O)(=O)N(Cc3cccnc3)c3c(C)cccc3C(=O)NO)cc2)cc1

>  <pIC50>
5.64

$$$$

# context switch: different compound, same pIC50
Record `COc1ccc(S(=O)(=O)N(Cc2cccnc2)c2c(C(=O)NO)cc(C)cc2-c2ccccc2)cc1` . Reported pIC50: 6.99

---

MEASURED TARGET: Interstitial collagenase (Homo sapiens) (UniProt P03956)
PROTOCOL SUMMARY: Inhibition of Matrix metalloprotease-1 at 10 uM
Give true when the value for inhibition is at least 40%. Give false when it is less.

Some entries whose results are on file:
>  <SMILES INPUT>
Cc1cc(Br)cc(C(=O)NO)c1N(C)S(=O)(=O)c1ccc(-c2ccc(OCc3cccnc3)cc2)cc1

>  <ASSIGNED LABEL>
true

$$$$
>  <SMILES INPUT>
Cc1cc(Br)cc(C(=O)NO)c1N(C)S(=O)(=O)c1ccc(-c2ccc(OCc3ccccc3)cc2)cc1

>  <ASSIGNED LABEL>
true

$$$$
>  <SMILES INPUT>
Cc1cc(Br)cc(C(=O)NO)c1N(C)S(=O)(=O)c1ccc(-c2ccc(OCc3nccs3)cc2)cc1

>  <ASSIGNED LABEL>
true

$$$$

Task: Confirm if inhibition reported for the molecule `Cc1cccc(C(=O)NO)c1N(Cc1cccnc1)S(=O)(=O)c1ccc(-c2ccc3c(c2)OCO3)cc1` is 40% or above.
Output: false

Task: Item `Cc1cc(Br)cc(C(=O)NO)c1N(Cc1ccccc1)S(=O)(=O)c1ccc(OCc2ccccc2)cc1` with inhibition of 40% or above?
Output: false

---

MEASURED TARGET: UniProtKB P14780
READOUT LABEL: pIC50
Worth noting: pIC50 values are minus log10 of concentrations stated in mol/L.

Example molecules with recorded pIC50:
>  <SMILES INPUT>
Cc1cc(Br)cc(C(=O)NO)c1N(C)S(=O)(=O)c1ccc(-c2ccc(OCc3ccsc3)cc2)cc1

>  <MEASURED TARGET>
UniProtKB P14780

>  <TEST RESULT>
6.63

$$$$
>  <SMILES INPUT>
Cc1cc(Br)cc(C(=O)NO)c1N(C)S(=O)(=O)c1ccc(-c2ccc(OCc3nccs3)cc2)cc1

>  <MEASURED TARGET>
UniProtKB P14780

>  <TEST RESULT>
6.02

$$$$

UniProtKB P14780 pIC50 of `Cc1cc(Br)cc(C(=O)NO)c1N(Cc1ccccc1)S(=O)(=O)c1ccc(OCc2ccccc2)cc1` is 5.46

Measured pIC50 for this entry `COc1ccc(-c2ccc(S(=O)(=O)N(Cc3cccnc3)c3c(C)cccc3C(=O)NO)cc2)cc1` on UniProtKB P14780: 6.82
